# credit: PubChem BioAssay (NCI)

Below, each entry is listed alongside its reported TGI.
tested on: HS 578T breast; assay: NCI tumour cell line growth inhibition, 48 h
Number in µM, nothing else.

Use these answered entries as a reference point.
Problem: Fill in the blank: the reported TGI of `Cc1ccsc1/C=N/Nc1cc(C)c2ccccc2n1` is ____.
Result: 38.6

Problem: Fill in the blank: the reported TGI of `N=C(N)c1ccc(-c2ccc(-c3ccc(Cl)cc3Cl)s2)nc1` is ____.
Result: 4.88

Problem: Fill in the blank: the reported TGI of `CC[C@@H](C(=O)[C@@H](C)[C@@H](O)[C@H](C)[C@@H]1O[C@@H]([C@@H](CC)C(=O)O)CC[C@@H]1C)[C@H]1O[C@]2(C=C[C@@H](O)[C@]3(CC[C@@](C)([C@H]4CC[C@](O)(CC)[C@H](C)O4)O3)O2)[C@H](C)C[C@@H]1C` is ____.
Result: 36.1

Here is another compound to look at.
Problem: Fill in the blank: the reported TGI of CNC(=O)C1OC(n2cnc3c(NCc4cccc(I)c4)nc(Cl)nc32)C(O)C1O (centres undefined) is ____.
Result: 18.7
